test: A CellTox Green Cytotoxicity Assay to monitor cytotoxicity in HepG2 cells - 8 hour (AID 1224890); details: CellTox Green fluorescence; series mostly up to 76.8 µM; note: % is set by controls: 0 for no effect and ±100 for the full control effect; nearly all actives have a fitted effect of over 45% in size
Inconclusive results are not listed. Calls of active or inactive are those of the source. Calls come from the whole dose curve; as a rule, active = well fitted activation curve with a large enough effect in the repeat runs; inconclusive = weak or mixed curves; inactive = flat fitted curve, though single readings scatter.

[
  {
    "smiles.repr": "CC(C)c1ccc(C#N)cc1",
    "cytotoxicity increase": "inactive"
  },
  {
    "smiles.repr": "CCCOC(=O)c1c(Cl)c(Cl)c(Cl)c(Cl)c1C(=O)OCCC",
    "cytotoxicity increase": "inactive"
  },
  {
    "smiles.repr": "Cc1ccc2c(c1[N+](=O)[O-])C(=O)c1ccccc1C2=O",
    "cytotoxicity increase": "inactive"
  },
  {
    "smiles.repr": "c1ccc2sc(SSc3nc4ccccc4s3)nc2c1",
    "cytotoxicity increase": "0.594% [at 15.8 µM] (inactive)"
  },
  {
    "smiles.repr": "Cc1ccc(N(CCO)CCO)cc1",
    "cytotoxicity increase": "inactive"
  },
  {
    "smiles.repr": "O=S(=O)(Cl)c1c(Cl)cccc1Cl",
    "cytotoxicity increase": "inactive"
  },
  {
    "smiles.repr": "CCC(CO)(CO)CO",
    "cytotoxicity increase": "inactive"
  }
]
